Data origin: ChEMBL document CHEMBL4513216

Exercise: for every item that follows, state its recorded cytotoxicity at 10 µM.
Test: Toxicity liver stage against HepG2, at 10uM
Assay type: cell-based
Design: test concentration 10 uM, cell line HepG2-A16-CD81EGFP
Details: human, HepG2-A16-CD81EGFP cells; read-out: INHIBITION
Just the number plus its unit, please.

Example entries and their recorded answers appear below.
MOLECULE	RECORDED_ENDPOINT	READING
c1cc(-c2noc(CN3CCc4c(ncn4C4CC4)C3)n2)cs1	cytotoxicity at 10 µM	4.71%
Cc1cc(CN2C[C@@H]3CN(Cc4ccsc4)CCO[C@@H]3C2)no1	cytotoxicity at 10 µM	-139%

Please state, for each entry, its recorded cytotoxicity at 10 µM.
1. Cc1cc(-c2cnc(N3CCNC(=O)C3)nc2-c2cccnc2C)on1
2. CCOC(=O)NCC(=O)Nc1nc2ccccc2n1C(C)(C)C
3. Cc1nc[nH]c1CN(Cc1ccc(F)cc1)C1CC(C)(C)NC(C)(C)C1
4. CCC(=O)c1ccc(OCC(=O)NC(C)c2nnn[nH]2)cc1 (stereo unspecified)

Ans.
1: -6.9%; 2: -4.62%; 3: 0.92%; 4: -1.62%
